System: HBL-100
method_notes: Growth inhibition of human HBL-100 cells measured after 48 hrs by SRB colorimetric assay
Format: functional
So I've got a bunch of compounds here, and I need their GI50 values.
Give bare numbers, in µM.

>>> print(df.to_string())
                           smiles_structure  measurement_target  value_kind  measurement
0  CCCCCCCCCCCCS(=O)(=O)[C@@H]1[C@H](F)[C@@H](O)[C@H](O)[C@H]2COC(=O)N21             HBL-100        GI50           19
1  CCCCCCCCCCCCS(=O)(=O)[C@@H]1[C@H](F)[C@@H](OCc2ccccc2)[C@H](O)[C@H]2COC(=O)N21             HBL-100        GI50          4.2
2  CCCCCCCCCCCCS(=O)(=O)[C@@H]1[C@@H](F)[C@@H](OCc2ccccc2)[C@H](O)[C@H]2COC(=O)N21             HBL-100        GI50          3.4

Provide GI50 values for the following items, in order.
1. CCCCCCCCCCCCS[C@@H]1[C@H](F)[C@@H](O)[C@H](O)[C@H]2COC(=O)N21
2. CCCCCCCCCCCCS(=O)(=O)[C@@H]1[C@@H](F)[C@@H](O)[C@H](O)[C@H]2COC(=O)N21
3. CCCCCCCCCCCCS(=O)(=O)[C@@H]1[C@@H](OC)[C@@H](O)[C@H](O)[C@H]2COC(=O)N21
4. CCCCCCCCCCCCS[C@@H]1[C@H](F)[C@@H](OCc2ccccc2)[C@H](O)[C@H]2COC(=O)N21
5. CCCCCCCCCCCCS(=O)(=O)[C@@H]1[C@H](O)[C@@H](OCc2ccccc2)[C@H](O)[C@H]2COC(=O)N21
6. CCCCCCCCCCCCS[C@@H]1[C@@H](F)[C@@H](OCc2ccccc2)[C@H](O)[C@H]2COC(=O)N21
7. O=c1[nH]cc(F)c(=O)[nH]1

[22, 7.4, 20, 19, 15, 18, 5.5]

Give GI50 for each of the items listed below.
1. CCCCCCCCCCCCS[C@@H]1[C@@H](O)[C@@H](O)[C@H](O)[C@H]2COC(=O)N21
2. CCCCCCCCCCCCS[C@@H]1[C@H](O)[C@@H](O)[C@H](O)[C@H]2COC(=O)N21

26
17
